MEASURED_ON: human TYRO3 (455-end) (Homo sapiens, UniProt Q06418)
Construct: TYRO3 (455-end); purchased SignalChem, Canada
Sequence (Q06418 455-890 limits assumed): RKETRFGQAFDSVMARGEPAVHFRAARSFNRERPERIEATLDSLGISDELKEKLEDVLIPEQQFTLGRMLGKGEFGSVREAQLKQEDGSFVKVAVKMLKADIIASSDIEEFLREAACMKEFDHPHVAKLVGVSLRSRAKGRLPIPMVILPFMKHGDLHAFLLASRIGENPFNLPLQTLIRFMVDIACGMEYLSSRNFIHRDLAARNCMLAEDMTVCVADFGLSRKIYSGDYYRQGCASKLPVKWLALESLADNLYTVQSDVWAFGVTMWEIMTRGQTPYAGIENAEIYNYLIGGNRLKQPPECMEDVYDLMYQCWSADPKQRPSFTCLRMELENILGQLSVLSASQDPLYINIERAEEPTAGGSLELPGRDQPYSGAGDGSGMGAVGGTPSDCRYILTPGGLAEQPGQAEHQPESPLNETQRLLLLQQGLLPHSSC
MEASUREMENT_PROTOCOL: HTRF kinase activity biochemical assay, TYRO3
STATED_CONDITIONS: 10 μM ATP, 30 minutes pre-incubation; read-out: HTRF TYRO IC50
Listed next: entries and their corresponding IC50.

Challenge: Item CN(CCC(O)CO)C1CCc2cc(-c3ccc(CO[C@H]4CCC[C@@H]4NC(=O)c4cc(-c5ccc(F)nc5)cnc4N)cc3)ccc21 (stereo partly drawn) [Example 126] has what recorded IC50?
Response given: > 1000 nM

Challenge: Queued: Cn1cc(-c2cnc(N)c(C(=O)N[C@H]3CCC[C@@H]3OCc3ccc(-c4cnc5c(c4)C(C)(C)CCN5C4CCN(CCO)CC4)cc3)c2)cn1 [Example 158]
Response given: 10 to 100 nM

Challenge: Queued: Cn1cc(-c2cnc(N)c(C(=O)N[C@H]3CCC[C@@H]3OCc3ccc(-c4ccc5c(ccn5CCN)c4)cc3)c2)cn1 [Example 67]
Response given: 100 to 1000 nM

---

Listed next: entries and their corresponding pIC50.
MEASURED_ON: human TYRO3 (455-end) (Homo sapiens, UniProt Q06418)
Construct: TYRO3 (455-end); purchased SignalChem, Canada
MEASUREMENT_PROTOCOL: HTRF kinase activity biochemical assay, TYRO3
STATED_CONDITIONS: 10 μM ATP, 30 minutes pre-incubation; read-out: HTRF TYRO IC50
pIC50: −log10 of the molar value.

Cn1cc(-c2cnc(N)c(C(=O)N[C@H]3CCC[C@@H]3OCc3ccc(-c4ccc5c(c4)C(C)(C)CCN5C4CCN(CCO)CC4)cc3)c2)cn1: 7.00 to 8.00
CC1(C)CN(C2CCN(CCO)CC2)c2ccc(-c3ccc(CO[C@H]4COC[C@@H]4NC(=O)c4cc(-c5cccnc5F)cnc4N)cc3)cc21: 6.00 to 7.00
Nc1ncc(-c2ccc(F)nc2)cc1C(=O)N[C@H]1CCC[C@@H]1OCc1ccc(-c2ccc3c(c2)CC(F)(F)C3N2CCN(CC(O)CO)CC2)cc1 (stereo partly drawn): < 6.00

Challenge: Could you share what pIC50 was measured for CC1(C)CN(C2CCN(CCO)CC2)c2ccc(-c3ccc(CO[C@H]4CCC[C@@H]4NC(=O)c4nc(-c5ccc(F)nc5)cnc4N)cc3)cc21 , tested on human TYRO3 (455-end) (Homo sapiens, UniProt Q06418)?
Response given: 6.00 to 7.00

Challenge: Queued: Cn1ccc(-c2cc(C(=O)N[C@H]3CCC[C@@H]3OCc3ccc(-c4ccc5c(c4)CC(F)(F)C5N4CCN(CCO)CC4)cc3)cnc2N)cc1=O (stereo partly drawn)
Response given: 6.00 to 7.00

Challenge: Queued: COc1ccnc(N)c1C(=O)N[C@H]1CCC[C@@H]1OCc1ccc(-c2ccc3c(c2)C(C)(C)CC3N2CCN(CCO)CC2)cc1 (stereo partly drawn)
Response given: 6.00 to 7.00

---

MEASURED_ON: human AXL (473-end) (Homo sapiens)
Construct: human AXL (473-end); purchased SignalChem, Canada
Sequence (P30530 473-894 limits assumed): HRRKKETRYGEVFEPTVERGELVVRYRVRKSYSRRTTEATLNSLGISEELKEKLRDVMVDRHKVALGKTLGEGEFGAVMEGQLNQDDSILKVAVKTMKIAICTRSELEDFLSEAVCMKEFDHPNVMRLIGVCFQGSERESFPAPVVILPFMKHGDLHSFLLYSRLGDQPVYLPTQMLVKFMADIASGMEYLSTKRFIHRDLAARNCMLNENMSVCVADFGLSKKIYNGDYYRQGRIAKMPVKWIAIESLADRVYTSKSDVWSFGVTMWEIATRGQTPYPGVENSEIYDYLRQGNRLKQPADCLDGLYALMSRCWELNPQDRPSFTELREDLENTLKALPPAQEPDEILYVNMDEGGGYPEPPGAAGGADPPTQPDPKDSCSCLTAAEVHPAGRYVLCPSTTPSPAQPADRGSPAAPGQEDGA
MEASUREMENT_PROTOCOL: HTRF kinase activity biochemical assay, AXL
STATED_CONDITIONS: 10 μM ATP, 30 minutes pre-incubation
MEASURED_QUANTITY: IC50

Challenge: Item CN1CC(C)(C)c2cc(-c3ccc(CO[C@H]4CCC[C@@H]4NC(=O)c4cc(-c5cnn(C)c5)cnc4N)cc3)ccc21 has what recorded IC50?
Response given: 10 to 100 nM

Challenge: Queued: Nc1ncc(C(F)(F)F)cc1C(=O)N[C@H]1CCC[C@@H]1OCc1ccc(-c2ccc3c(ccn3C3CCN(CCO)CC3)c2)cc1
Response given: 10 to 100 nM

Challenge: Queued: Cn1cc(-c2cnc(N)c(C(=O)N[C@H]3CCC[C@@H]3OCc3ccc(-c4ccc5c(c4)C(C)(C)CN5C4CCN(CCO)CC4)cc3)c2)ccc1=O
Response given: < 10 nM
